Molecular target: human mGluR5 (Homo sapiens, UniProt P41594)
Sequence (P41594 21-1180 isoform P41594-2 limits assumed): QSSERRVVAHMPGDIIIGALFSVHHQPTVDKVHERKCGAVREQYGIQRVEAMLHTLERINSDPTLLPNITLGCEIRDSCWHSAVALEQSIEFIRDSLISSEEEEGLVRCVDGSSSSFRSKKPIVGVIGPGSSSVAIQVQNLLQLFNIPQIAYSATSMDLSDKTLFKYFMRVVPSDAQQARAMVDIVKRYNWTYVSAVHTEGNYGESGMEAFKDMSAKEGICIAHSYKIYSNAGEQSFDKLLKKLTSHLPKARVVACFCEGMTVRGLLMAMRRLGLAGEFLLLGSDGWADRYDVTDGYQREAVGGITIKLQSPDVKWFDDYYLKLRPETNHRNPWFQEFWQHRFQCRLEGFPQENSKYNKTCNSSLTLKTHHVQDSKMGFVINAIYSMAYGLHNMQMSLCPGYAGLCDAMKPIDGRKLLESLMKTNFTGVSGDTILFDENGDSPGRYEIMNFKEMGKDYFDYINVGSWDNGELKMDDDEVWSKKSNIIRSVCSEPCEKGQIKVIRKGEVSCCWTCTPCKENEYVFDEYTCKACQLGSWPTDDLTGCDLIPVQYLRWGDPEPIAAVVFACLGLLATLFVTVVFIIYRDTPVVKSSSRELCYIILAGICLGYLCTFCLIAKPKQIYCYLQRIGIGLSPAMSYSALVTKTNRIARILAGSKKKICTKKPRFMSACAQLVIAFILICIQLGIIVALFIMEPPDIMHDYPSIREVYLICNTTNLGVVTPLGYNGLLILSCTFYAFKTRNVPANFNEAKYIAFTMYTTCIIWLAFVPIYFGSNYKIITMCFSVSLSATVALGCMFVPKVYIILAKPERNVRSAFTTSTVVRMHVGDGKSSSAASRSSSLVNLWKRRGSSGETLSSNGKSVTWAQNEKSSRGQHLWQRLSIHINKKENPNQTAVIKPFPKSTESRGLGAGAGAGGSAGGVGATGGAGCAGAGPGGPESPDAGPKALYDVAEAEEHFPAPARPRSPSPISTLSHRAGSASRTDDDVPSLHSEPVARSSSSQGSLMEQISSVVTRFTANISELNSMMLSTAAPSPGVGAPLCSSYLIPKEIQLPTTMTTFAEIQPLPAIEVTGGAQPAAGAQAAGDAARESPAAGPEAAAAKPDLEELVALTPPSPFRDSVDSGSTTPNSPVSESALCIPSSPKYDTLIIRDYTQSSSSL
Test: Cell-based functional Ca2+ mobilization assay (FDSS), potentiation of glutamate EC20 response, HEK293A cells transfected with human mGluR5a (H10H or H12H cell line)
Details: H10H cell line expressing recombinant human mGluR5; in presence of glutamate EC20; ** = compound is an antagonist; read-out: pEC50 (converted)
Please provide measured EC50 for the entries that follow.

Give measured EC50 for COc1ccc(C(=O)N2CCn3nc(OCc4ccccc4)cc3C2)cn1 [Example B35] (human mGluR5 (Homo sapiens, UniProt P41594)). > 30.2 µM

Give measured EC50 for O=C(c1ccc(F)cc1)N1CCn2nc(OCc3ccc4nccn4c3)cc2C1 [Example B118] (human mGluR5 (Homo sapiens, UniProt P41594)). > 30.2 µM

Give measured EC50 for O=C(c1ncccn1)N1CCn2nc(OCc3ccccc3)cc2C1 [Example B51] (human mGluR5 (Homo sapiens, UniProt P41594)). > 30.2 µM

Give measured EC50 for COc1ccccc1COc1cc2n(n1)CCN(C(=O)c1ccc(F)cc1)C2 [Example B17] (human mGluR5 (Homo sapiens, UniProt P41594)). > 10 µM

Give measured EC50 for O=C(c1ccc(F)cc1)N1CCn2nc(OCc3cc[n+]([O-])cc3)cc2C1 [Example B135] (human mGluR5 (Homo sapiens, UniProt P41594)). ≥ 10 µM

Give measured EC50 for O=C(c1cnccn1)N1CCn2nc(OCc3ccccc3)cc2C1 [Example B37] (human mGluR5 (Homo sapiens, UniProt P41594)). > 10 µM

Give measured EC50 for O=C(c1ncccc1Cl)N1CCn2nc(OCc3ccccc3)cc2C1 [Example B29] (human mGluR5 (Homo sapiens, UniProt P41594)). > 30.2 µM

Give measured EC50 for O=C(c1ncc(F)cc1F)N1CCn2nc(OCc3ccccc3)cc2C1 [Example B65] (human mGluR5 (Homo sapiens, UniProt P41594)). > 10 µM

Origin of values: patent US9029366B2
